Test system: Amaranthus retoflexus (AMARE)
assay.protocol: Post-emergence efficacy (glasshouse)
Type: in vivo
condition.set: 62.5 g/ha, evaluated after 13 days
measured.parameter: percentage damage caused to the plant, AMARE (five point scale)

smiles_code=O=c1c(-c2c(F)ccc(Cl)c2OCc2ccccc2)c(O)c2scnc2n1CC(F)F result="5 (5=80-100%)"
smiles_code=O=c1c(-c2c(C(F)(F)F)ccc(Cl)c2OCc2ccccc2)c(O)c2scnc2n1CC(F)F result="4 (4=60-79%)"
smiles_code=C#CCn1c(=O)c(-c2c(C(F)(F)F)ccc(Cl)c2OCc2ccccc2)c(O)c2scnc21 result="5 (5=80-100%)"
smiles_code=O=c1c(-c2c(Cl)ccc(Cl)c2OCc2ccccc2)c(O)c2scnc2n1CC(F)F result="5 (5=80-100%)"

Alright, here's another compound for you.
Input line: Lookup: percentage damage caused to the plant, AMARE (five point scale) / Amaranthus retoflexus (AMARE) / Cn1c(=O)c(-c2c(F)ccc(Cl)c2OCc2ccccc2)c(O)c2scnc21
Output line: 4 (4=60-79%)
